- method_description: Pharmacokinetics assay in rats after intragastrical administration
- Format: in vivo, Sprague-Dawley (SD) rats
- test_settings: both sexes, Sprague-Dawley, rat, plasma, po; SD rats, intragastric, 2 mg/kg; read-out: Area Under Curve AUC
quantity_kind: AUC (ng·h/mL)

COc1cn([C@@H](Cc2ccccc2)C(=O)Nc2ccc(C(=O)O)cc2)c(=O)cc1-c1c(C(C)=O)ccc(Cl)c1F	414
CNC(=O)c1ccc(NC(=O)[C@H](Cc2ccccc2)n2cc(OC)c(-c3cc(Cl)ccc3C(C)=O)cc2=O)cc1	241
COc1cn([C@@H](Cc2ccccc2)C(=O)Nc2ccc(C(N)=O)cc2)c(=O)cc1-c1cc(Cl)ccc1C(C)=O	125
COc1cn([C@@H](CCOC(C)(C)C)C(=O)Nc2ccc(C(=O)O)cc2)c(=O)cc1-c1cc(Cl)ccc1C(C)=O	378
COc1cn([C@@H](Cc2ccncc2)C(=O)Nc2ccc(C(=O)O)cc2)c(=O)cc1-c1cc(Cl)ccc1C#N [Comparative Example 1, reference compound]	7.27
COc1cn([C@@H](Cc2ccccn2)C(=O)Nc2ccc(C(=O)O)cc2)c(=O)cc1-c1cc(Cl)ccc1C(C)=O	158
COc1cn(C(Cc2ccccc2)C(=O)Nc2ccc(C(=O)O)cc2F)c(=O)cc1-c1cc(Cl)ccc1C(C)=O (centres unmarked)	382
CCC(=O)c1ccc(Cl)cc1-c1cc(=O)n([C@@H](Cc2ccccc2)C(=O)Nc2ccc(C(=O)O)cc2)cc1OC	701
CCC(=O)c1ccc(Cl)cc1-c1cc(=O)n([C@@H](CCOC(C)(C)C)C(=O)Nc2ccc(C(=O)O)cc2)cc1OC	452
COc1cn([C@@H](Cc2ccccc2)C(=O)Nc2ccc(C(=O)O)cc2)c(=O)cc1-c1cc(Cl)ccc1C(C)=O	518

a = COc1cn([C@H](CC2CCC2)C(=O)Nc2ccc(C(=O)O)cc2)c(=O)cc1-c1c(C(C)=O)ccc(Cl)c1F
b = CCC(=O)c1ccc(Cl)cc1-c1cc(=O)n([C@@H](CCOC(C)(C)C)C(=O)Nc2ccc3nccnc3c2)cc1OC
c = COc1cn([C@@H](Cc2cccnc2)C(=O)Nc2ccc(C(=O)O)cc2)c(=O)cc1-c1cc(Cl)ccc1C(C)=O
d = COc1cn([C@@H](CC2CCC2)C(=O)Nc2ccc(C(=O)O)cc2)c(=O)cc1-c1cc(Cl)ccc1C(C)=O
IN: Ascending sort, AUC. Please list the labels according to the requested order.
OUT: c, b, a, d
(c: 54.6 ng·h/mL, b: 168 ng·h/mL, a: 365 ng·h/mL, d: 701 ng·h/mL)

* * *

- method_description: Pharmacokinetics assay in cynomolgus monkeys
- Assay type: in vivo
- test_settings: male, cynomolgus monkey, plasma, po, intragastric, 15 mg/kg, read-out: Mean Residence Time MRT
quantity_kind: MRT (h)

CCC(=O)c1ccc(Cl)cc1-c1cc(=O)n([C@@H](CCOC(C)(C)C)C(=O)Nc2ccc(C(=O)O)cc2)cc1OC [Example 108]	8.81
COc1cn([C@@H](Cc2ccccc2)C(=O)Nc2ccc(C(=O)O)cc2)c(=O)cc1-c1cc(Cl)ccc1C(C)=O [Example 5]	9.63

* * *

pIC50: −log10 of the molar value.
// values below are pIC50; system is UniProt:P03951
Sequence (P03951 388-625): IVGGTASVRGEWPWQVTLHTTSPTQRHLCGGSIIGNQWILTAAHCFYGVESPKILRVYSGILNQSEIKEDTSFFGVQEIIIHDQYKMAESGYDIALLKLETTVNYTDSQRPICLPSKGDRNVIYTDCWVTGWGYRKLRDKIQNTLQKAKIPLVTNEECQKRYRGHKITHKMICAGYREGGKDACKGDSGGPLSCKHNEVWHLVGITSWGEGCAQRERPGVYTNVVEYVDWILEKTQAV
Sequence (P03951 19-387 partner): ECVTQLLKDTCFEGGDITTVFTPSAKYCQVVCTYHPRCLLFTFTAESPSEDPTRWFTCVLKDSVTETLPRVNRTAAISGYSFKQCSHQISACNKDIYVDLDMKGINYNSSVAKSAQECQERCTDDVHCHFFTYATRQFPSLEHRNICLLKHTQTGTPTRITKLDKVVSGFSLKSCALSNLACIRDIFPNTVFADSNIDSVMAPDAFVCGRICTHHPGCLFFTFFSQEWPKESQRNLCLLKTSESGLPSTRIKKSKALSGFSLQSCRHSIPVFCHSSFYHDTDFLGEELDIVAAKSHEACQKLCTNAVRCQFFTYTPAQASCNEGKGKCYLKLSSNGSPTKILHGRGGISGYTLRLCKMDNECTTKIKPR
quantity_kind: pIC50

COc1cn(C(Cc2ccccc2)C(=O)Nc2ccc(C(=O)O)cc2)c(=O)cc1-c1cc(Cl)ccc1C(=O)CC1CC1 (stereo not shown)	7.42
COc1cn(C(Cc2cccnc2)C(=O)Nc2ccc(C(=O)O)cc2)c(=O)cc1-c1cc(Cl)ccc1C(C)=O (stereo not shown)	7.17
COc1cn(C(Cc2ccccc2C)C(=O)Nc2ccc(C(=O)O)cc2)c(=O)cc1-c1cc(Cl)ccc1C(C)=O (stereo not shown)	7.47
CNC(=O)c1ccc(NC(=O)[C@H](Cc2ccccc2)n2cc(OC)c(-c3cc(Cl)ccc3C(C)=O)cc2=O)cc1	7.34
